- System: brains, heart, liver, muscle, and DRG of the NHPs
- assay text: Maturation of TTM-001 and TTM-002 capsids, NGS enrichment in NHP tissues
- Format: in vivo
- experimental conditions: NGS fold-enrichment, NHP heart, relative to AAV9 control
Consider the following sequences and their measured Fold Enrichment relative to AAV9, Heart (NHP) readings.
reported metric: Fold Enrichment relative to AAV9, Heart (NHP) (fold)

macromolecule sequence: KAINGHDSPHKSGQIRQT
test result: 23.908
//
macromolecule sequence: KVINGHDSPHKSGQTQQT (peptide inserted in AAV capsid)
test result: 0.055
//
macromolecule sequence: KTENKSGSPHSKAQNQQT
test result: 0.037
//
macromolecule sequence: KTCNKSGSPHSKAQNQQT
test result: 0.000
//
macromolecule sequence: KATNGSGSPHSKAQNHQT
test result: 0.176
//
macromolecule sequence: KNINGGGSPHSKAQNQQT
test result: 0.042
//
macromolecule sequence: KSINESGSPHSKAQNQQI
test result: 0.000
//
macromolecule sequence: KSLNGSGSPHTKAQNQQT
test result: 0.333
//
macromolecule sequence: KTFNRSGSPHSKAQNQQI
test result: 113.67
//
macromolecule sequence: KTTNGQDSPHKSGQNQQS
test result: 0.037
//
macromolecule sequence: KNTNGSGSPHSKAQNQQT
test result: 0.000
//
macromolecule sequence: KAINGPDSPHKSGQKQQT
test result: 0.047
//
macromolecule sequence: KTINGSGSPHSKAQFPST
test result: 0.004
//
macromolecule sequence: KTVHGNGSPHSKAQNQQT
test result: 0.000
//
macromolecule sequence: KTIYGHDSPHKSVQNQLT
test result: 0.043
//
macromolecule sequence: KAINGHDSPHKSAQNQET
test result: 0.073
//
macromolecule sequence: KSINGHDSPHKSGQIQHT
test result: 0.480
